Target: T1, soluble recombinant human DEC-205 fusion protein (DEC-205 extracellular domain comprising all ten … (human))
T1 chain: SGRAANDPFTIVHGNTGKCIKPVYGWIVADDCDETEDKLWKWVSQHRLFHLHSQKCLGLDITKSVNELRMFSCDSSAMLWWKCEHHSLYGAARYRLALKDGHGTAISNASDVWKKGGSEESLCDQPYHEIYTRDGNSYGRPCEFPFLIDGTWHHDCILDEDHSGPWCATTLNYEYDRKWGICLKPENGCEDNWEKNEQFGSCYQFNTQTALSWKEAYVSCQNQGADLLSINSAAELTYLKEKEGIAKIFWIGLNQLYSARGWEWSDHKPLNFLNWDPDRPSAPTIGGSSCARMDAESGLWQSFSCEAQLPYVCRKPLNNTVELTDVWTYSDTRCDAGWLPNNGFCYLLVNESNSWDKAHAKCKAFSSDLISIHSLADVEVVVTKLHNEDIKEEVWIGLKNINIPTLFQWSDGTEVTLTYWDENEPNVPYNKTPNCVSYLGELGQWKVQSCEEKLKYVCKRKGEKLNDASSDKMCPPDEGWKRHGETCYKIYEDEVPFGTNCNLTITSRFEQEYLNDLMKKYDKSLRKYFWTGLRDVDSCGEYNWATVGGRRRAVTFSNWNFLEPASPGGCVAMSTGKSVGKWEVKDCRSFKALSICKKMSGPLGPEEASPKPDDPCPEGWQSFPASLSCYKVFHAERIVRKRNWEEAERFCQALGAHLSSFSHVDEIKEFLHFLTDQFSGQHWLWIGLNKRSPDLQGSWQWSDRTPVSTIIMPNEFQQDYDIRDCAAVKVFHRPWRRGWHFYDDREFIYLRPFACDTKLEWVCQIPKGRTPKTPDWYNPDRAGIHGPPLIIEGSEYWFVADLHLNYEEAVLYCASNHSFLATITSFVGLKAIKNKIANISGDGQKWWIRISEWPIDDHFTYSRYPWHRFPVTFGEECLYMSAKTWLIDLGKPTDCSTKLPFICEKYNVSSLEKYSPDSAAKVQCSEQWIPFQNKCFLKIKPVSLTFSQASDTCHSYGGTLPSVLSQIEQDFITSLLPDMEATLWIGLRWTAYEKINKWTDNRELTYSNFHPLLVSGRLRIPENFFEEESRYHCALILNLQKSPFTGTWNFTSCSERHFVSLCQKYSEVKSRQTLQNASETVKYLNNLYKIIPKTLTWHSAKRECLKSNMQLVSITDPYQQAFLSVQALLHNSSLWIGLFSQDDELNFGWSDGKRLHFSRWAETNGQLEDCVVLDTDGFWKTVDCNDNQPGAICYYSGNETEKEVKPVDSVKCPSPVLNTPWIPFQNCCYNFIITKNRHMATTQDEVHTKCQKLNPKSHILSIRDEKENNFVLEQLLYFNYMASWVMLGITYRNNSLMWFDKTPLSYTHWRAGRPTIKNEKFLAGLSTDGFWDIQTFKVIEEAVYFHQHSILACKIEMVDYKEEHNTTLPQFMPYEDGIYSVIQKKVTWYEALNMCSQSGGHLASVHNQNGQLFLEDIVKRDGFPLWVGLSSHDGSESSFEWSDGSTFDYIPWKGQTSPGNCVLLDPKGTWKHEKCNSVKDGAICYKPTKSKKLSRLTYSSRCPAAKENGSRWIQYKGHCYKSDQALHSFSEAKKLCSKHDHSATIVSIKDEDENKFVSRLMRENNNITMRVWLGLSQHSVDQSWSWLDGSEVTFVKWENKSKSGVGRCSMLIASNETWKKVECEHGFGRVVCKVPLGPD
Assay: SPR (Biacore 2000), DEC-205 fusion protein amine-coupled to CM5 chip, antibody flowed, 1:1 Langmuir fit, mean of two series
property name: Kd (nM)

human anti-DEC-205 monoclonal antibody 3D6-2F4 (antibody, V domains shown, also called mAb #5) VH: QVQLVESGGGVVQPGRSLRLSCAASGFIFSIYGMHWVRQAPGKGLEWVAVIWYDGSNKYYADSVKGRFTISRDNSKNTLYLQMNSLRAEDTAVYYCARAPHFDYWGQGTLVTVSS VL: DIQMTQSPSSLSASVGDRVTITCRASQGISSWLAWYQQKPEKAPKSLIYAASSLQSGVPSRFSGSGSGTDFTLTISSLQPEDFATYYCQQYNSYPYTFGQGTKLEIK    0.08
